Recorded values, source patent US20240124597A1.

Biological target: T1, human-CD40-monomer protein (human, UniProt P25942 21-193, limits assumed)
T1 construct: Soluble monomer generated in house, used as SPR analyte; also called hCD40; hCD40-monomer
T1 sequence (P25942 21-193 limits assumed): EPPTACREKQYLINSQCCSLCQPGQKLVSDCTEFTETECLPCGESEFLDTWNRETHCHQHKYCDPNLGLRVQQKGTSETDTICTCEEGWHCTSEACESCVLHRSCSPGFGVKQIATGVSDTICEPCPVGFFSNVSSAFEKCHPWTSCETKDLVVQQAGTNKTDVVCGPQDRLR
Assay: SPR, Ab captured on protein A, hCD40 monomer 500 and 50 nM, 1:1 fit; supernatant
Method: Titer analysis was performed using Biolayer Interferometry (BLI) on an Octet RED instrument (Fortebio) by capturing antibodies from supernatant using protein A sensor tips and measuring capture response with respect to a standard curve obtained using a control antibody sample. SPR data were obtained by capturing antibodies on a protein A surface and testing the binding of 500 nM and 50 nM injections of human-CD40 analyte, using a BIAcore™ T200 instrument (GE Healthcare). […]
Measured Kd, listed per entry for reference.

>  <BINDER>
Y12XX-hz27 (antibody, human IgG1, kappa, V domains shown, Humanized, IgG1-P238K; supernatant sample) VH: QVQLVQSGAEVKKPGSSVKVSCKASGYAFTSYWMHWVRQAPGQGLEWMGQINPSNARSQYNEKFKTRVTITADKSTSTAYMELSSLRSEDTAVYYCARWGLQPFAYWGQGTLVTVSS VL: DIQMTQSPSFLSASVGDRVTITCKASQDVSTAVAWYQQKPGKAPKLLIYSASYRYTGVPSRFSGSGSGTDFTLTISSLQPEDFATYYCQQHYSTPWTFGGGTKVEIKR

>  <OUTPUT UNIT>
nM

>  <Kd>
4.7

$$$$
>  <BINDER>
Y12XX-hz39 (antibody, human IgG1, kappa, V domains shown, Humanized, IgG1-P238K; supernatant sample) VH: QVQLVQSGAEVKKPGSSVKVSCKASGYAFTSYWMHWVRQRPGQGLEWIGQINPSNGRSQYNEKFKTRVTITADKSTSTAYMELSSLRSEDTAVYYCARWGLQPFAYWGQGTLVTVSS VL: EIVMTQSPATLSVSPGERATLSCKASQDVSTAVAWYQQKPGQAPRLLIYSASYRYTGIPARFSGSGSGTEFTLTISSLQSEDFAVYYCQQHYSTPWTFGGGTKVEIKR

>  <OUTPUT UNIT>
nM

>  <Kd>
3.5

$$$$
